tested on: Huh-7; test: NOVARTIS: Cytotoxicity against human hepatocellular carcinoma cell line (Huh7); type: toxicity, cell-based; details: huh-7, read-out: CC50
Listing: CC50 of selected compounds

Chemical string | Experimental system | Quantity measured | Test value
Cn1cc(/C=C/c2cc[n+](C)cc2)c2ccccc21 | Huh-7 | CC50 | 7.7 µM
C/C(C=C1Sc2ccc3ccoc3c2N1CCO)=C\c1sc2ccc3occc3c2[n+]1CCO | Huh-7 | CC50 | > 100 µM
CCN(CC)c1ccc(C=Cc2cccc[n+]2CC)cc1 | Huh-7 | CC50 | > 10 µM
CC[n+]1c(C=C2Sc3ccccc3N2CCO)sc2ccccc21 | Huh-7 | CC50 | > 100 µM
CCCCN1C(=Cc2cccc[n+]2C)Sc2cc(NC(C)=O)ccc21 | Huh-7 | CC50 | > 100 µM

[Q] So what's the measured CC50 for this one? CC[n+]1c(C=CN(C)C)sc2ccccc21
[A] 27.1 µM

[Q] Request: CCN1/C(=C/c2cccc[n+]2C)Sc2ccc(C)cc21
[A] > 100 µM

[Q] Request: CCCC[n+]1c(C=C2C=Cc3ccccc3N2CC)sc2ccccc21
[A] 6.12 µM

[Q] Request: CCN1/C(=C/c2[se]c3ccccc3[n+]2CC)C=Cc2cc(OC)ccc21
[A] 12.7 µM

[Q] Request: CCN1/C(=C/c2cccc[n+]2C)C=Cc2ccc(C)cc21
[A] > 49.9 µM

[Q] Request: CC(C)c1ccc(/C=C2/SC(=Nc3ccccc3)NC2=O)cc1
[A] > 100 µM

###

system: Plasmodium falciparum; assay: NOVARTIS: Inhibition of Plasmodium falciparum 3D7 (drug-susceptible) proliferation in erythrocyte-based infection assay; format: functional, organism-based; conditions: Plasmodium falciparum, 3D7
pEC50: −log10 of the molar value.
Quantity measured: pEC50

Compound | Experimental system | pEC50
COC(=O)C1=C(O)/C(=C\c2cc(C)n(-c3ccccc3F)c2C)N=C1C | Plasmodium falciparum | < 6.01

[Q] Identify the measured pEC50 of CCOC(=O)c1sc(Nc2c(Cl)cc(S(N)(=O)=O)cc2Cl)nc1C for Plasmodium falciparum.
[A] < 5.90

[Q] Request: CCOC(=O)c1[nH]c(CSC#N)c(C(C)=O)c1C
[A] < 5.90

###

Listing: EC50 of selected compounds
tested on: Plasmodium falciparum; assay: NOVARTIS: Inhibition of Plasmodium falciparum 3D7 (drug-susceptible) proliferation in erythrocyte-based infection assay; assay type: functional, organism-based; conditions: Plasmodium falciparum, 3D7

Compound | EC50
CCCCC(CC)C(=O)N1CCN(C(C)c2nc3ccc(Cl)cc3c(=O)n2C)CC1 (stereo unspecified) | > 1490 nM

[Q] Identify the measured EC50 of O=C(COc1ccccc1Cl)OCc1cc(=O)n2nc(C3CC3)sc2n1 for Plasmodium falciparum.
[A] > 803 nM

[Q] Request: CCC(C)N(CCC(=O)N1CCN(Cc2ccccc2)CC1)C(=O)Nc1cccc(Cl)c1Cl (stereo unspecified)
[A] > 1560 nM

[Q] Request: CCCCNCCN1CCN(c2ccc(OC)cc2)C[C@@H]1c1ccccc1
[A] > 1280 nM

[Q] Request: O=[N+]([O-])c1ccc(-c2csc(CO)n2)cc1
[A] > 12500 nM

[Q] Request: CC1(C)CC(NC(=O)Cc2ccc(Cl)cc2)CC(C)(C)N1
[A] > 12500 nM

###

system: Plasmodium falciparum; assay: NOVARTIS: Inhibition of Plasmodium falciparum W2 (drug-resistant) proliferation in erythrocyte-based infection assay; assay type: functional, organism-based; details: Plasmodium falciparum, W2; read-out: EC50
Listing: EC50 of selected compounds
Reply with just the number (in nM).

[Q] So what's the measured EC50 for this one? C[N+](C)(CC#Cc1ccccc1)CC#Cc1ccccc1
[A] 679

###

test: NOVARTIS: Cytotoxicity against human hepatocellular carcinoma cell line (Huh7); assay type: toxicity, cell-based, Huh-7; details: Huh7 cells (hepatocellular carcinoma cell line)
Quantity measured: CC50

[Q] So what's the measured CC50 for this one? CCCCCN(C(=O)c1ccc(Br)cc1)C(CC)c1nc2ccccc2c(=O)n1-c1ccccc1OC (configuration not stated)
[A] > 4.4 µM

[Q] Request: CCOc1ccc(N2C(=O)NC(=O)/C(=C\c3cn(C(C)=O)c4ccccc34)C2=O)cc1
[A] > 10 µM

[Q] Request: CCN1CCN(CC(O)COc2ccc(OC)cc2)CC1 (configuration not stated)
[A] > 100 µM

[Q] Request: COC(CNc1cc(-c2ccccn2)nc(-c2ccccn2)n1)OC
[A] > 10 µM

[Q] Request: Cc1cc(C)c(S(=O)(=O)N(C)CCCNc2ccnc3cc(Cl)ccc23)c(C)c1
[A] 26.8 µM

[Q] Request: COCCN(CC(=O)Nc1cc(C(C)(C)C)nn1-c1ccc(C)cc1)C(=O)COCc1ccccc1
[A] > 10 µM

[Q] Request: CCCCc1ccc(C(=O)NCCCN(C(=O)Nc2ccc([N+](=O)[O-])cc2)c2ccccc2)cc1
[A] 2.69 µM

[Q] Request: c1cc(-c2nc3ccccc3[nH]2)nc(-c2nc3ccccc3[nH]2)c1
[A] 47.5 µM

[Q] Request: O=c1[nH]n(CC2COC(c3ccccc3)O2)c(=O)c2ccccc12 (configuration not stated)
[A] > 100 µM

###

test: NOVARTIS: Cytotoxicity against human hepatocellular carcinoma cell line (Huh7); assay type: toxicity, cell-based, Huh-7; settings: Huh7 cells (hepatocellular carcinoma cell line)
Listing: CC50 of selected molecules

// solved cases for CC50 follow
Molecule | CC50
CCN(CC)CCCC(C)Nc1c2ccc(Cl)cc2nc2ccc(OC)cc12 (configuration not stated) | 19.6 µM
C/C=C/[P+](c1ccccc1)(c1ccccc1)c1ccccc1 | 2.81 µM
c1ccc(-c2cc(NCCCN3CCOCC3)nc(-c3ccccn3)n2)nc1 | > 10 µM
COc1ccc(-c2nc(SCCCCC(=O)N3CCN(C(c4ccccc4)c4ccccc4)CC3)[nH]c2-c2ccc(OC)cc2)cc1 | > 10 µM
COc1ccccc1CNc1ncc(C(=O)NCCCN2CCCC2=O)c(NCCc2ccccc2)n1 | > 10 µM

[Q] So what's the measured CC50 for this one? CC[n+]1c(/C=C/C=C2\N(C)c3ccccc3C2(C)C)n(-c2ccccc2)c2ccc(C)cc21
[A] > 10 µM

[Q] Request: CC1(C)Cc2c(oc3ncn(CCn4cnc5oc6c(c5c4=N)CC(C)(C)SC6)c(=N)c23)CS1
[A] > 100 µM

[Q] Request: Cc1nn(CC(O)Cn2c3ccc(Br)cc3c3cc(Br)ccc32)c(C)c1Br (configuration not stated)
[A] 75.2 µM

[Q] Request: Cc1cccc(NC(=O)N2CCN(C(=O)c3nc(-c4ccccc4)nc(C)c3C(=O)OC(C)C)CC2C)c1C (configuration not stated)
[A] > 5.76 µM

[Q] Request: COc1ccccc1CNC(=O)c1nn(-c2ccc(Cl)cc2)c(=O)c2ccccc12
[A] > 100 µM

[Q] Request: O=C1[C@@H]2Cc3c([nH]c4ccccc34)C(CCc3ccccc3)N2C(=O)CN1CCc1c[nH]c2ccccc12 (some centres not stated)
[A] > 100 µM

[Q] Request: C[n+]1ccc(C=Cc2ccc(Br)cc2)cc1
[A] > 100 µM

[Q] Request: CC[n+]1c(/C=C/C=C2\N(C)c3ccccc3C2(C)C)n(CCCOC(C)=O)c2ccccc21
[A] > 10 µM

###

tested on: Plasmodium falciparum; test: NOVARTIS: Inhibition of Plasmodium falciparum W2 (drug-resistant) proliferation in erythrocyte-based infection assay; format: functional, organism-based; conditions: Plasmodium falciparum, W2; read-out: EC50
Quantity measured: EC50 (nM)
Reply with just the number (in nM).

Molecule | Unit string | EC50
CN(C)CCNC(=O)c1ccc(-c2cccc3c2sc2ccccc23)nc1N1CCN(CCO)CC1 | nM | 452
C=CCn1c(=N)n(CC(O)c2ccc(Cl)c(Cl)c2)c2ccccc21 (stereo not drawn) | nM | 58.3

[Q] So what's the measured EC50 for this one? Oc1ccc(C2Nc3ccc4ccccc4c3C3C=CCC32)cc1 (stereo not drawn)
[A] 292

[Q] Request: CCOc1cc(-c2nnc3[nH]c(=O)n(C)c(=O)c3n2)ccc1OC(C)C
[A] 394

###

system: Plasmodium falciparum; experiment: NOVARTIS: Inhibition of Plasmodium falciparum W2 (drug-resistant) proliferation in erythrocyte-based infection assay; assay type: functional, organism-based; settings: Plasmodium falciparum, W2; read-out: EC50
Listing: EC50 of selected compounds
Reply with just the number (in nM).

Chemical string | Experimental system | Unit string | Test value
COc1cc(-c2cc(C)c3c(OC)ccc(OC)c3n2)cc2c1OCCN(C(=O)CCn1nc(C)cc1C)C2 | Plasmodium falciparum | nM | 913

[Q] So what's the measured EC50 for this one? Cc1cc(I)ccc1NC(=O)CNC(=O)OCc1ccccc1
[A] 1280

Sourced from ChEMBL document CHEMBL1156829
